Target: T1, IL-11 (Cat. 12225-HNCE, Sino Biological Inc.) (UniProt P20809 22-199, limits assumed)
T1 sequence (looked up): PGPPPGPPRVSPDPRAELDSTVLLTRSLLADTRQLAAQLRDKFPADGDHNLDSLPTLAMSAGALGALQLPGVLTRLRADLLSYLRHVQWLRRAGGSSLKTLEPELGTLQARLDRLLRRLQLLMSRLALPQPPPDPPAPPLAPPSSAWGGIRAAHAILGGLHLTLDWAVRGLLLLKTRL
Experiment: cell-based or functional assay
Outcome Measure: Blocking activity (IC50), STAT3-luc reporter
Field: value (include unit after the number)

Answered cases to consult:
Problem: Dear colleague, I am looking for the recorded Blocking activity (IC50), STAT3-luc reporter of the following binder: hz8C8-VHm1-m5 + hz8C8-VLm7-m2 (antibody, human IgG1, kappa, V domains shown, human IgG1 constant regions) VH: EVQLVESGGGLVQPGGSLRLSCAASGFTFSSFGMHWVRQAPGKGLEYVAYITPGSNTIYYADTVKGRFTISRDNAKNSLYLQMNSLRAEDTAVYYCAREYYSYDEGFAYWGQGTLVTVSS VL: EIVLTQSPATLSLSPGERATLSCSVSDLIPSQYLHWYQQKPGQAPRLLIYDASNLASGIPARFSGSGSGTDFTLTISSLEPEDFAVYYCQQGVDVPFTFGQGTKLEIKR
Result: 0.194 µg/mL

Problem: Which Blocking activity (IC50), STAT3-luc reporter value is on record for hz18A10-VHm3 + hz18A10-VLm19 (antibody, V domains shown, Constant regions not restated for this antibody) VH: EVQLVQSGAEVKKPGASVKVSCKASGYTFTTYDMDWVRQAPGQGLEWMGTIYPGNGDTSYNQKFKGRVTMTRDTSTSTVYMELSSLRSEDTAVYYCARGDLYALDYWGQGTLVTVSS VL: DIQMTQSPSSLSASVGDRVTITCKASQSVYRDVAWYQQKPGKAPKLLIYSASNRYTGVPSRFSGSGSGTDFTFTISSLQPEDIATYYCQHDYSSPYTFGQGTKLEIK ?
Result: 0.262 µg/mL

Below: the item to evaluate.
Problem: Quick one: Blocking activity (IC50), STAT3-luc reporter of hz8C8-VHm1-m7 + hz8C8-VLm7-m2 (antibody, human IgG1, kappa, V domains shown, human IgG1 constant regions) VH: EVQLVESGGGLVQPGGSLRLSCAASGFTFSSFGMHWVRQAPGKGLEWVSVITPGSNTIYYADTVKGRFTISRDNAKNSLYLQMNSLRAEDTAVYYCAREYYSYDEGFAYWGQGTLVTVSS VL: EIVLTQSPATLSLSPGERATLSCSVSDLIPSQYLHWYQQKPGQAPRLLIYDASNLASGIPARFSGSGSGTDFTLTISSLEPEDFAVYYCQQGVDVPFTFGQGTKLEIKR ?
Result: 0.027 µg/mL
